# pKd annotations
target: Heat shock protein HSP 90-beta (Homo sapiens); assay: Binding affinity to human recombinant HSP90
pKd: −log10 of the molar value.

These solved cases illustrate the format of a correct answer.
INSERT INTO measurements (smilesrecord, targetdesc, valueobserved) VALUES
  ('CO[C@H]1C=CC=C(C)C(=O)Nc2cc(O)c(N=CCN3CCC3)c(c2O)C[C@@H](C)C[C@H](OC)[C@H](O)[C@@H](C)/C=C(\C)[C@@H]1OC(N)=O', 'Heat shock protein HSP 90-beta (Homo sapiens)', 6.40),
  ('CO[C@H]1C[C@H](C)Cc2c(O)c(cc(O)c2N=CCN(C)C)NC(=O)C(C)=CC=C[C@H](OC)[C@@H](OC(N)=O)/C(C)=C/[C@H](C)/C1=N\OCc1ccccc1', 'Heat shock protein HSP 90-beta (Homo sapiens)', '< 4.00'),
  ('CO[C@H]1C[C@H](C)Cc2c(O)c(cc(O)c2N=CCN(C)C)NC(=O)C(C)=CC=C[C@H](OC)[C@@H](OC(N)=O)/C(C)=C/[C@H](C)/C1=N\OCCN(C)C', 'Heat shock protein HSP 90-beta (Homo sapiens)', '< 4.00');

Now let's try a different one.
Query: // pKd lookup, key: CO[C@H]1C=CC=C(C)C(=O)Nc2cc(O)c(N=CCN(C)C)c(c2O)C[C@@H](C)C[C@H](OC)[C@H](N)[C@@H](C)/C=C(\C)[C@@H]1OC(N)=O
Result: < 4.60

====

molecular target: Heat shock protein HSP 90-beta (Homo sapiens); experiment: Binding affinity to human recombinant HSP90
attributeMeasured: Kd (µM)

Some compounds with recorded Kd:
INSERT INTO measurements (smilesrecord, attributemeasured, valueunit, valueobserved) VALUES
  ('CO[C@H]1[C@@H](OC)C[C@H](C)Cc2c(O)c(cc(O)c2N=CCN(C)C)NC(=O)C(C)=CC=C[C@H](OC)[C@@H](OC(N)=O)/C(C)=C/[C@@H]1C', 'Kd', 'µM', 0.8),
  ('CO[C@H]1[C@@H](OC)CC(C)=Cc2c(O)c(cc(O)c2N2CCC2)NC(=O)C(C)=CC=C[C@H](OC)[C@@H](OC(N)=O)/C(C)=C/[C@@H]1C', 'Kd', 'µM', 4);

I = CO[C@H]1C=CC=C(C)C(=O)Nc2cc(O)c(N=CCN(C)C)c(c2O)C[C@@H](C)C[C@H](OC)[C@H](NCC(F)(F)F)[C@@H](C)/C=C(\C)[C@@H]1OC(N)=O
II = CO[C@H]1C=CC=C(C)C(=O)Nc2cc(O)c(N=CCF)c(c2O)C[C@@H](C)C[C@H](OC)[C@H](O)[C@@H](C)/C=C(\C)[C@@H]1OC(N)=O
III = CO[C@H]1C=CC=C(C)C(=O)Nc2cc(O)c(N=CCN3CCCC3)c(c2O)C[C@@H](C)C[C@H](OC)[C@H](O)[C@@H](C)/C=C(\C)[C@@H]1OC(N)=O
Query: Order the 3 compounds from highest to lowest Kd. Order the labels as requested and list them.
Result: I, II, III
(I: 4 µM, II: 0.8 µM, III: 0.4 µM)

a = CO[C@H]1[C@@H](OC)C[C@H](C)Cc2c(O)c(cc(O)c2N=CCN2CCC2)NC(=O)C(C)=CC=C[C@H](OC)[C@@H](OC(N)=O)/C(C)=C/[C@@H]1C
b = C=CCO[C@H]1[C@@H](OC)CC(C)=Cc2c(O)c(cc(O)c2N2CCC2)NC(=O)C(C)=CC=C[C@H](OC)[C@@H](OC(N)=O)/C(C)=C/[C@@H]1C
Query: Parameter check: reported Kd is higher for which label, a or b ? Could you answer with the label of the item you picked?
Result: b

====

biological target: Heat shock protein HSP 90-beta (Homo sapiens, UniProt P08238); assay: Binding affinity to human recombinant HSP90
Sequence (P08238 whole entry): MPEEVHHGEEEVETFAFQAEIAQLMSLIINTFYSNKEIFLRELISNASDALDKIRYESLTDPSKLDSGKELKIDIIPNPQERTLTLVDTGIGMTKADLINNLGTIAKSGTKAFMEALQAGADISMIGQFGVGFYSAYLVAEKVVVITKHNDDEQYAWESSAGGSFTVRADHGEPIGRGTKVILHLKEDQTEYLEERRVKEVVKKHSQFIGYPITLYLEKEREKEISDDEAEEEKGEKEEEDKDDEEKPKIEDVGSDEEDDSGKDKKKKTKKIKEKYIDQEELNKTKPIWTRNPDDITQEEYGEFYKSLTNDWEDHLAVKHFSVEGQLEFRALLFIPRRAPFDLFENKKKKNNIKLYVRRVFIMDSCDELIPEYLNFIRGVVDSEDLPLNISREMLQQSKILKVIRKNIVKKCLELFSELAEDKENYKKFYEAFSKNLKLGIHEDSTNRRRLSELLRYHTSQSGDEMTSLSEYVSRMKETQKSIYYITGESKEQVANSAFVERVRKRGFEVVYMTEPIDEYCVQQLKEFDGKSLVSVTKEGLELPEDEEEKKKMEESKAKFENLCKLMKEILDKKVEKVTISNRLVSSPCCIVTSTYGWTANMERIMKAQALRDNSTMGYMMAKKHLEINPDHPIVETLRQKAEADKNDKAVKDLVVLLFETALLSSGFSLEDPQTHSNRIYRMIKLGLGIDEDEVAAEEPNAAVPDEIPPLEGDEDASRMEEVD
attributeMeasured: Kd

Observe how each entry below is paired with its result.
INSERT INTO results (molecule, attributemeasured, valueobserved) VALUES
  ('C=CC=Nc1c(O)cc2c(O)c1C[C@@H](C)C[C@H](OC)C(N=O)[C@@H](C)C=C(C)[C@H](OC(N)=O)[C@@H](OC)C=CC=C(C)C(=O)N2 (stereo partly specified)', 'Kd', '> 10 µM'),
  ('C=CC=Nc1c(O)cc2c(O)c1C[C@@H](C)C[C@H](OC)[C@H](OC(=O)CCN)[C@@H](C)/C=C(\C)[C@H](OC(N)=O)[C@@H](OC)C=CC=C(C)C(=O)N2', 'Kd', '> 25 µM'),
  ('CO/N=C1/[C@@H](OC)C[C@H](C)Cc2c(O)c(cc(O)c2N=CCN(C)C)NC(=O)C(C)=CC=C[C@H](OC)[C@@H](OC(N)=O)/C(C)=C/[C@@H]1C', 'Kd', '> 100 µM');

Query: Kd for CO[C@H]1C[C@H](C)Cc2c(O)c(cc(O)c2N=CCF)NC(=O)C(C)=CC=C[C@H](OC)[C@@H](OC(N)=O)C(C)=C[C@H](C)C1N=O (stereo partly specified) ?
Result: > 25 µM

Query: Do the same for CO[C@H]1C=CC=C(C)C(=O)Nc2cc(O)c(N=CCF)c(c2O)C[C@@H](C)C[C@H](OC)[C@H](OC(=O)CN)[C@@H](C)/C=C(\C)[C@@H]1OC(N)=O please
Result: > 25 µM

Query: Moving on to CO[C@H]1C[C@H](C)Cc2c(O)c(cc(O)c2N=CCN(C)C)NC(=O)C(C)=CC=C[C@H](OC)[C@@H](OC(N)=O)C(C)=C[C@H](C)C1N=O (stereo partly specified)
Result: > 10 µM

====

Form field: Kd (one value per entry).
biological target: Heat shock protein HSP 90-beta (Homo sapiens, UniProt P08238); assay: Binding affinity to human recombinant HSP90

INSERT INTO measurements (smilesrecord, targetdesc, valueobserved) VALUES
  ('CO[C@H]1C[C@H](C)Cc2c(O)c(cc(O)c2N=CCN(C)C)NC(=O)C(C)=CC=C[C@H](OC)[C@@H](OC(N)=O)/C(C)=C/[C@H](C)/C1=N\OCC(=O)O', 'Heat shock protein HSP 90-beta (Homo sapiens, UniProt P08238)', '> 25 µM'),
  ('CO[C@H]1C=CC=C(C)C(=O)Nc2cc(O)c(N=CCN(C)C)c(c2O)C[C@@H](C)C[C@H](OC)[C@H](NCC(F)F)[C@@H](C)/C=C(\C)[C@@H]1OC(N)=O', 'Heat shock protein HSP 90-beta (Homo sapiens, UniProt P08238)', '2.9 µM'),
  ('C=CCO/N=C1/[C@@H](OC)C[C@H](C)Cc2c(O)c(cc(O)c2N=CCN(C)C)NC(=O)C(C)=CC=C[C@H](OC)[C@@H](OC(N)=O)/C(C)=C/[C@@H]1C', 'Heat shock protein HSP 90-beta (Homo sapiens, UniProt P08238)', '> 100 µM');

Query: Reported Kd for CO[C@H]1C=CC=C(C)C(=O)Nc2cc(O)c(N=CCN(C)C)c(c2O)C[C@@H](C)C[C@H](OC)[C@H](NCCN(C)C)[C@@H](C)/C=C(\C)[C@@H]1OC(N)=O : what is it?
Result: > 50 µM

Query: What do you get for CNCC=Nc1c(O)cc2c(O)c1C[C@@H](C)C[C@H](OC)[C@H](OC(=O)CN)[C@@H](C)/C=C(\C)[C@H](OC(N)=O)[C@@H](OC)C=CC=C(C)C(=O)N2 ?
Result: > 25 µM

Query: Do the same for CO[C@H]1C=CC=C(C)C(=O)Nc2cc(O)c(N=CCc3cnc[nH]3)c(c2O)C[C@@H](C)C[C@H](OC)[C@H](O)[C@@H](C)/C=C(\C)[C@@H]1OC(N)=O please
Result: 0.8 µM

Query: Also check C=CC=Nc1c(O)cc2c(O)c1C[C@@H](C)C[C@H](OC)[C@H](OC(=O)CN)[C@@H](C)/C=C(\C)[C@H](OC(N)=O)[C@@H](OC)C=CC=C(C)C(=O)N2
Result: > 25 µM

Query: CO[C@H]1[C@@H](OC)C[C@H](C)Cc2c(O)c(cc(O)c2N=CCN2CCCC2)NC(=O)C(C)=CC=C[C@H](OC)[C@@H](OC(N)=O)/C(C)=C/[C@@H]1C , same question.
Result: 1 µM

Query: Same for CO[C@H]1C=CC=C(C)C(=O)Nc2cc(O)c(N=CCN(C)C)c(c2O)C[C@@H](C)C[C@H](OC)[C@H](NCCF)[C@@H](C)/C=C(\C)[C@@H]1OC(N)=O
Result: > 50 µM

Query: Now give it for CO[C@H]1C=CC=C(C)C(=O)Nc2cc(O)c(N=CCN(C)C)c(c2O)C[C@@H](C)C[C@H](OC)[C@H](NCCC(F)(F)F)[C@@H](C)/C=C(\C)[C@@H]1OC(N)=O too.
Result: > 10 µM
